tested on: CAKI-1 renal; test: NCI tumour cell line growth inhibition, 48 h
OBSERVABLE: TGI (µM)

[
  {
    "MOLECULE": "CCC1OC(/C(C)=C/C(C)/C=C/C2C(C)C2/C=C/C2OC(CC(=O)O)CC(O)C2O)CC=C1C (centres undefined)",
    "OBSERVABLE": "TGI",
    "VALUE_UNIT": "µM",
    "SIGN": ">",
    "READOUT_VALUE": 50
  },
  {
    "MOLECULE": "COc1ccc(NS(=O)c2cccc(C)c2)cc1 (centres undefined)",
    "OBSERVABLE": "TGI",
    "VALUE_UNIT": "µM",
    "SIGN": ">",
    "READOUT_VALUE": 100
  },
  {
    "MOLECULE": "CC(C)CC(NC(=O)C(COc1ccc([N+](=O)[O-])cc1)Cc1ccccc1)C(=O)Nc1ccccc1 (centres undefined)",
    "OBSERVABLE": "TGI",
    "VALUE_UNIT": "µM",
    "SIGN": "=",
    "READOUT_VALUE": 83.8
  },
  {
    "MOLECULE": "NC(=S)N/N=C\\c1nccc2c(C(F)(F)C(F)(F)C(F)(F)F)cccc12",
    "OBSERVABLE": "TGI",
    "VALUE_UNIT": "µM",
    "SIGN": "=",
    "READOUT_VALUE": 1.59
  },
  {
    "MOLECULE": "CC(C)c1nccn1Cc1ccc(Cl)cc1Cl",
    "OBSERVABLE": "TGI",
    "VALUE_UNIT": "µM",
    "SIGN": ">",
    "READOUT_VALUE": 100
  },
  {
    "MOLECULE": "CC1(C)CC2(C)OC(=N)C1(C#N)C2(C#N)C#N (centres undefined)",
    "OBSERVABLE": "TGI",
    "VALUE_UNIT": "µM",
    "SIGN": "=",
    "READOUT_VALUE": 12.3
  },
  {
    "MOLECULE": "Cc1c(N)nc(C(CC(N)=O)NCC(N)C(N)=O)nc1C(=O)NC(C(=O)NC(C)C(O)C(C)C(=O)NC(C(=O)NCCc1nc(-c2nc(C(=O)NCCCNCCCCN)cs2)cs1)C(C)O)C(OC1OC(CO)C(O)C(O)C1OC1OC(CO)C(O)C(OC(N)=O)C1O)c1cnc[nH]1 (centres undefined)",
    "OBSERVABLE": "TGI",
    "VALUE_UNIT": "µM",
    "SIGN": "=",
    "READOUT_VALUE": 2.38
  },
  {
    "MOLECULE": "COC(=O)C(C(=O)OC)C1CC(=O)c2c(Br)sc(Br)c21 (centres undefined)",
    "OBSERVABLE": "TGI",
    "VALUE_UNIT": "µM",
    "SIGN": "=",
    "READOUT_VALUE": 21.1
  },
  {
    "MOLECULE": "C/C(=C\\CNc1nc(Cl)nc2nc[nH]c12)CO",
    "OBSERVABLE": "TGI",
    "VALUE_UNIT": "µM",
    "SIGN": ">",
    "READOUT_VALUE": 100
  }
]

These data points were gathered from PubChem BioAssay (NCI).
